Test system: NRG-mice bearing LNCaP tumors
Measurement description: Biodistribution (and PET/SPECT imaging) in NRG-mice bearing LNCaP tumors
Type: in vivo
Cond: 24 h p.i., Avg
*1 amine or outer side, *2 acyl side, *3 side chain or, on linkers, in order; H or OH if unused. Where a SMILES comes first, the peptide text is derived from it. [ ]: non-standard residue; d: D form. The star is where a group is joined. ξ: configuration not given here. ξLys(Nα-CO-ξAad) = O=C(O)CCCC(NC(=O)NC(CCCCN*)C(=O)O)C(=O)O; Butanoyl(4-(4-NO2Ph)) = O=C(CCCc1ccc([N+](=O)[O-])cc1)*; DOTA = O=C(O)CN1CCN(CC(=O)O)CCN(CC(=O)*)CCN(CC(=O)O)CC1; Butanoyl(4-(4-MeO-phenyl)) = COc1ccc(CCCC(=O)*)cc1; ξAla(9-anthryl) = NC(Cc1c2ccccc2cc2ccccc12)C(=O)O; X2 = O=C(NC(CCCCN*)C(=O)O)NC(CC(F)C(=O)O)C(=O)O; X1 = O=C(C1CCC(CN[*:1])CC1)[*:2]; ξK = NCCCCC(N)C(=O)O
Reported Biodistribution: Lungs is given for each of the following molecules.
Please respond with the number in % ID/g and leave the unit unwritten.

O=C([O-])CN1CCN(CC(=O)[O-])CCN(CC(=O)NCCCCC(NC(=O)CNC(=O)CCCc2ccc([N+](=O)[O-])cc2)C(=O)NCC(=O)NCC2CCC(C(=O)NC(Cc3c4ccccc4cc4ccccc34)C(=O)NCCCCC(NC(=O)NC(CCCC(=O)O)C(=O)O)C(=O)O)CC2)CCN(CC(=O)[O-])CC1.[225Ac+3] (stereo not shown) [^225Ac-CCZ02017] ({Butanoyl(4-(4-NO2Ph))}-G[ξK](DOTA)G[X1][ξAla(9-anthryl)]-{ξLys(Nα-CO-ξAad)})    0.58
O=C([O-])CN1CCN(CC(=O)[O-])CCN(CC(=O)NCCCCC(NC(=O)CNC(=O)CCCc2ccc([N+](=O)[O-])cc2)C(=O)NCC(=O)NCC2CCC(C(=O)NC(Cc3c4ccccc4cc4ccccc34)C(=O)NCCCCC(NC(=O)NC(CCCC(=O)O)C(=O)O)C(=O)O)CC2)CCN(CC(=O)[O-])CC1.[177Lu+3] (stereo not shown) [^177Lu-CCZ02017] ({Butanoyl(4-(4-NO2Ph))}-G[ξK](DOTA)G[X1][ξAla(9-anthryl)]-{ξLys(Nα-CO-ξAad)})    0.55
COc1ccc(CCCC(=O)NCC(=O)NC(CCCCNC(=O)CN2CCN(CC(=O)[O-])CCN(CC(=O)[O-])CCN(CC(=O)[O-])CC2)C(=O)NCC(=O)NCC2CCC(C(=O)NC(Cc3c4ccccc4cc4ccccc34)C(=O)NCCCCC(NC(=O)NC(CC(F)C(=O)O)C(=O)O)C(=O)O)CC2)cc1.[177Lu+3] (stereo not shown) [^177Lu-CCZ02008] ({Butanoyl(4-(4-MeO-phenyl))}-G[ξK](DOTA)G[X1][ξAla(9-anthryl)]-X2)    2.49

From here, focus on the item given below.
What value of Biodistribution: Lungs has been recorded for this entry: COc1ccc(CCCC(=O)NCC(=O)NC(CCCCNC(=O)CN2CCN(CC(=O)[O-])CCN(CC(=O)[O-])CCN(CC(=O)[O-])CC2)CC(=O)NCC2CCC(C(=O)NC(Cc3c4ccccc4cc4ccccc34)C(=O)NCCCCC(NC(=O)NC(CC(F)C(=O)O)C(=O)O)C(=O)O)CC2)cc1.[177Lu+3] (stereo not shown) [^177Lu-CCZ02019]
0.65

The reported numbers originate from patent US20250186627A1.
